Record form. Attribute: EC50. Fill in for each entry.
experimental-target: T1, human SIRPβ1v2 (huSIRPβ1v2) (human, UniProt Q5TFQ8 30-371)
T1 construct: Coated on the plate in ELISA; Only the Ensembl protein number is printed; also called huSIRPß1v2
T1 sequence (Q5TFQ8 30-371 limits assumed): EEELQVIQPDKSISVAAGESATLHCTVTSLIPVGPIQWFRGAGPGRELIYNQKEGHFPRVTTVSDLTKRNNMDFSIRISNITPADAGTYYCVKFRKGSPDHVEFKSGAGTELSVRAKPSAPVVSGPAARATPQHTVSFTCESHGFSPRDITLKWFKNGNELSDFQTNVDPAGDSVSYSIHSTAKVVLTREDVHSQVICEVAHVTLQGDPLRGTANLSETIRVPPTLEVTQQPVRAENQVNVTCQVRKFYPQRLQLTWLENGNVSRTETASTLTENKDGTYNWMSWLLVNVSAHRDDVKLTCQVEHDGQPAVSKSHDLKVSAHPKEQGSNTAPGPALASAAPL
test-protocol: ELISA, antigen coated
Reply with the number and its unit after it.

Entry anti-SIRPα antibody 9 (antibody, human IgG1, kappa, L234A L235A, V domains shown, Rabbit variable regions on human IgG1 LALA / kappa) VH: QSMEESGGRLVTPGTPLTLTCTASGFSLSNYGVSWVRQAPGKGLEWIGIIYGGSDITAYASWAKGRFTISKTSTTVDLTITSPTTEDTATYFCAKSYTNGMDYYNIWGPGTLVTVSL VL: AFDLTQTPSSVEAPVGGTVIIKCQASQSISSYLAWYQQKPGQPPKLLIYSASTLASGVSSRFKGSGSETQFPLTISDLESADAATYYCQSYYGSRSNVFGGGTEVVVKR — recorded EC50 = 0.047 µg/mL

Entry anti-SIRPα antibody 3 (antibody, human IgG1, kappa, L234A L235A, V domains shown, Rabbit variable regions on human IgG1 LALA / kappa) VH: QSVEESGGRLVTPGTPLTLACTVSGFSLISYYISWVRQAPEKGLEYIGIINIGGGASYASWAKGRFTISKTSTTVDLKITSPTPEDTATYFCAMSYGMDTGAFNIWGPGTLVTVSL VL: AQVLTQTPASVSAAVGGTVTISCQSSESVYKNNFLSWYQQKPGKPPKLLIYGASTLASGVPSRFKGSGSGTQFTLTISDLESDDAATYFCQGGYRTDIYPFGGGTEVVVKR — recorded EC50 = 0.089 µg/mL

Entry anti-SIRPα antibody 2 (antibody, human IgG1, kappa, L234A L235A, V domains shown, Rabbit variable regions on human IgG1 LALA / kappa) VH: QSVEESGGRLVTPGTPLTLTCTVSGFSLSNYAMHWVRQAPGKGLEWIGIIYTGGATSYATWAKGQFTISKTSTTVDLKITSPTTEDTATYFCARGDRDGYAYFNIWGPGTLVTVSL VL: QIVMTQTPFSVSAVVGGTVTIKCQASHNIGSWLAWYQQKPGQRPKLLIYDASTLASGVSSRFKGSGSGTEFTLTISGVESADAATYYCQQGYGISYVHNVFGGGTEVVVKR — recorded EC50 = 0.028 µg/mL

Entry 29AM4-5huIgG1LALA (antibody, V domains shown, HAVT20 leader left out) VH: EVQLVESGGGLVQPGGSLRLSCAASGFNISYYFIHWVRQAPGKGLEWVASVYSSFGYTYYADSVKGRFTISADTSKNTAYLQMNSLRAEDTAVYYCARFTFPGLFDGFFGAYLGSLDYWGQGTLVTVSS VL: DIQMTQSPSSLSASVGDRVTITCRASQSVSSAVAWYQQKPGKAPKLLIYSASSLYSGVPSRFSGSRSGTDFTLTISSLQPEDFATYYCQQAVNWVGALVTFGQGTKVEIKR — recorded EC50 = 0.017 µg/mL
